// reported pIC50 for each item listed
# MEASURED TARGET: recombinant human FAK1 (Homo sapiens, UniProt Q05397)
# Construct: fused on or other part: N-terminal 6xHis tag
# Sequence (Q05397 422-680 limits assumed): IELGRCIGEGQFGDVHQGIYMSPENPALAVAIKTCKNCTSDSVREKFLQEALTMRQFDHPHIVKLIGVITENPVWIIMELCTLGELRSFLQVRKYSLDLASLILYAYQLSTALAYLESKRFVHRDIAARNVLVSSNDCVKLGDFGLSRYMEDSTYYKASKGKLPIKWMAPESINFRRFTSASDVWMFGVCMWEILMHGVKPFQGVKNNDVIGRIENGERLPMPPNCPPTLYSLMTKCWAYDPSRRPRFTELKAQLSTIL
# MEASUREMENT PROTOCOL: FAK1 HTRF assay
pIC50: −log10 of the molar value.

A selection of reference data follows.
Note to self: pIC50 recorded for CN1CCN(c2ccc(Nc3ncc4ccn(Cc5ccccc5N(C)S(C)(=O)=O)c4n3)cc2)CC1 was > 7.70

Note to self: pIC50 recorded for COc1ccc(Nc2cc3c(ccn3S(=O)(=O)c3cccc(OC(F)(F)F)c3)cn2)cc1 was < 6.00

Next:
Note to self: pIC50 recorded for COc1cc(Nc2cc3c(ccn3S(=O)(=O)c3ccccc3C#N)cn2)ccc1N1CCNCC1 was > 7.70

* * *

# MEASURED TARGET: recombinant human FAK1 (Homo sapiens, UniProt Q05397)
# Construct: fused on or other part: N-terminal 6xHis tag
# MEASUREMENT PROTOCOL: FAK1 HTRF assay
pIC50: −log10 of the molar value.
MEASURED QUANTITY: pIC50

Note to self: pIC50 recorded for Cc1ccc(N(C)S(C)(=O)=O)c(Cn2ccc3cnc(Nc4ccc(N5CCC(N(C)C)CC5)cc4)nc32)c1 was > 7.70

Note to self: pIC50 recorded for CN1CCC(Oc2ccc(Nc3ncc4ccn(Cc5ccccc5N(C)S(C)(=O)=O)c4n3)cc2)CC1 was > 7.70

Next:
Note to self: pIC50 recorded for CN(C)C1CCN(c2ccc(Nc3ncc4c(n3)N(c3ccccc3NS(C)(=O)=O)CC4(C)C)cc2)CC1 was < 6.00

* * *

Read-out record for AURKB (Aurora B) enzyme (Homo sapiens): IC50

A selection of reference data follows.
// compound C[C@H]1CN(c2ccc(Nc3ncc4c(n3)N(S(=O)(=O)c3cccc5cccnc35)CC4(C)C)cc2F)CCN1 , assay AURKB (Aurora B) enzyme (Homo sapiens), IC50 value: > 1000 nM

// compound O=S(=O)(c1cccc2cccnc12)n1ccc2cnc(Nc3ccc(N4CC5CC4CN5)cc3)nc21 (centres unmarked) , assay AURKB (Aurora B) enzyme (Homo sapiens), IC50 value: < 20 nM

// compound CN(c1ncccc1Cn1ccc2cnc(Nc3ccc(C4=CCNCC4)cc3)nc21)S(C)(=O)=O , assay AURKB (Aurora B) enzyme (Homo sapiens), IC50 value: < 20 nM

// compound COc1cc(N2CCNCC2)ccc1Nc1cc2c(ccn2S(=O)(=O)c2cccc3cccnc23)cn1 , assay AURKB (Aurora B) enzyme (Homo sapiens), IC50 value: < 20 nM

Next:
// compound COc1ccccc1S(=O)(=O)n1ccc2cnc(Nc3ccc(N4CCNCC4)cc3)cc21 , assay AURKB (Aurora B) enzyme (Homo sapiens), IC50 value: < 20 nM

* * *

# MEASURED TARGET: recombinant human FAK1 (Homo sapiens, UniProt Q05397)
# Construct: fused on or other part: N-terminal 6xHis tag
# MEASUREMENT PROTOCOL: FAK1 HTRF assay
# Protocol: Active FAK1 was prepared for use in the Homogeneous Time-Resolved Fluorescence (HTRF) assay. Briefly, N-terminal 6 His tagged recombinant human FAK1, from residue 692-end (GenBank accession no. L13616) was expressed by Bacculovirus in sf9 cells. […] • 1. […] The readings were taken in Pherastar in HTRF mode (ext 337 nm, em 665 & 620 nm) • 9. The results were analyzed using Graphpad Prism® software after calculation the z factor signal window and % inhibition. • 10. The IC50 was calculated.
pIC50: −log10 of the molar value.
// reported pIC50 for each item listed

Note to self: pIC50 recorded for Cc1ccc(N(C)S(C)(=O)=O)c(Cn2ccc3cnc(Nc4ccc(C5CCC(N(C)C)CC5)cc4)nc32)c1 (stereo not drawn) [Example 980] was > 7.70

Note to self: pIC50 recorded for CC1CN(c2ccc(Nc3cc4c(ccn4S(=O)(=O)c4ccccc4C#N)cn3)cc2)CC(C)N1 (stereo not drawn) [Example 529] was > 7.70

Note to self: pIC50 recorded for Cc1ccc(N(C)S(C)(=O)=O)c(Cn2ccc3cnc(Nc4ccc(N5CCNCC5)cc4)nc32)c1 [Example 759] was > 7.70

Note to self: pIC50 recorded for O=S(=O)(c1cccc2cccnc12)n1ccc2cnc(Nc3ccc(N4CCOCC4)cc3)nc21 [Example 389] was > 7.70

Note to self: pIC50 recorded for CN(C)C1CCN(c2ccc(Nc3ncc4ccn(Cc5cc(Cl)ccc5N(C)S(C)(=O)=O)c4n3)cc2)CC1 [Example 796] was > 7.70

Shifting focus to the molecule that follows.
Note to self: pIC50 recorded for CC(=O)N(C)c1ccccc1Cn1ccc2cnc(Nc3ccc(N4CCN[C@H](C)C4)cc3)nc21 [Example 787] was < 6.00

From: patent US20160222014A1
